System: IFNα-Induced STAT Phosphorylation
Assay overview: IFNα-Induced STAT Phosphorylation in Human Whole Blood
Assay type: cell-based
Experimental setup: Homo sapiens, 1 h compound incubation, 1000 U/mL recombinant human IFNα A/D for 15 min, pSTAT5 in CD3 positive population, read-out: LE Human WB IFNα-Induced Stat Phosph. (IC50)
pIC50: −log10 of the molar value.
Quantity kind: pIC50

INPUT: Using the record for [2H]C([2H])([2H])NC(=O)c1nnc(Nc2cc(Cl)ccn2)cc1Nc1nccc(-c2ncn(C)n2)c1OC , state its measured pIC50.
OUTPUT: 7.52

[A] [2H]C([2H])([2H])NC(=O)c1nnc(Nc2ccc(OCC)nn2)cc1Nc1nccc(-c2ncn(C)n2)c1OC
[B] [2H]C([2H])([2H])NC(=O)c1nnc(NC(=O)CC(C)C)cc1Nc1nccc(-c2noc(COC)n2)c1OC
[C] [2H]C([2H])([2H])NC(=O)c1nnc(Nc2ccn(C)n2)cc1Nc1nccc(-c2cnc(C(=O)N(C)C)cn2)c1OC
INPUT: Sort by pIC50, descending. List labels; respect the requested ordering.
OUTPUT: A, C, B

###

Test system: IFNα-Induced STAT Phosphorylation
Assay overview: IFNα-Induced STAT Phosphorylation in Human Whole Blood
Assay type: cell-based
Experimental setup: Homo sapiens, 1 h compound incubation, 1000 U/mL recombinant human IFNα A/D for 15 min, pSTAT5 in CD3 positive population, read-out: LE Human WB IFNα-Induced Stat Phosph. (IC50)
Quantity kind: IC50 (nM)

[A] [2H]C([2H])([2H])NC(=O)c1nnc(Nc2cc(C)n(C)n2)cc1Nc1nccc(-c2cnc(C(=O)N(C)C)cn2)c1OC [Example 91]
[B] [2H]C([2H])([2H])NC(=O)c1nnc(Nc2nnc(C)s2)cc1Nc1nccc(-c2ncn(C)n2)c1OC [Example 20]
INPUT: I need your help: which of the pair A , B has higher IC50? Indicate your choice by writing its label.
OUTPUT: B

[a] [2H]C([2H])([2H])NC(=O)c1nnc(NC(=O)CC)cc1Nc1nccc(-c2noc(COC)n2)c1OC [Example 66]
[b] [2H]C([2H])([2H])NC(=O)c1cnc(NC(=O)CC)cc1Nc1nccc(-c2noc(C)n2)c1OC [Example 43]
INPUT: Compare IC50: is it lower for a or for b ? Answer by quoting the chosen item's label.
OUTPUT: b

[A] [2H]C([2H])([2H])NC(=O)c1nnc(NC(=O)C2CC2)cc1Nc1nccc(-c2cnc(C(=O)N(C)CC)cn2)c1OC [Example 88]
[B] [2H]C([2H])([2H])NC(=O)c1nnc(Nc2cc(Cl)n(C)n2)cc1Nc1nccc(-c2cnc(C(=O)N(C)C)cn2)c1OC [Example 92]
[C] [2H]C([2H])([2H])NC(=O)c1nnc(NC(=O)CC)cc1Nc1nccc(-c2noc(C)n2)c1OC [Example 81]
INPUT: Ascending by IC50, please. List labels; respect the requested ordering.
OUTPUT: B, A, C
(B: 90 nM, A: 130 nM, C: 220 nM)

[I] [2H]C([2H])([2H])NC(=O)c1cnc(NC(=O)CC)cc1Nc1nccc(-c2nnn(C)n2)c1OC [Example 105]
[II] [2H]C([2H])([2H])NC(=O)c1nnc(Nc2ccc(N3CCN(C(C)(C)C)C3=O)cn2)cc1Nc1nccc(-c2ncn(C)n2)c1OC [Example 37]
INPUT: Pick one: I or II . Which has the bigger IC50 number? Write down the label attached to your selection.
OUTPUT: II

[1] [2H]C([2H])([2H])NC(=O)c1nnc(NC(=O)CC)cc1Nc1nccc(-c2noc(CN3CCOCC3)n2)c1OC [Example 65]
[2] [2H]C([2H])([2H])NC(=O)c1nnc(Nc2ccc(-n3ccccc3=O)cn2)cc1Nc1nccc(-c2ncn(C)n2)c1OC [Example 24]
INPUT: Could you kindly indicate whether 1 or 2 has the higher IC50 value? Answer by stating the label of the chosen item.
OUTPUT: 1

[P] [2H]C([2H])([2H])NC(=O)c1nnc(NC(=O)OC)cc1Nc1nccc(-c2noc(C)n2)c1OC [Example 56]
[Q] [2H]C([2H])([2H])NC(=O)c1nnc(NC(=O)C2CC2)cc1Nc1nccc(-c2noc(COC)n2)c1OC [Example 50]
[R] [2H]C([2H])([2H])NC(=O)c1nnc(Nc2cc(F)c(F)cn2)cc1Nc1nccc(-c2ncn(C)n2)c1OC [Example 39]
INPUT: Sort entries by IC50 from minimum to maximum value. Respond with the label ranking, as requested.
OUTPUT: Q, R, P

###

Tested on: IFNα-Induced STAT Phosphorylation
Assay overview: IFNα-Induced STAT Phosphorylation in Human Whole Blood
Assay type: cell-based
Experimental setup: Homo sapiens, 1 h compound incubation, 1000 U/mL recombinant human IFNα A/D for 15 min, pSTAT5 in CD3 positive population, read-out: LE Human WB IFNα-Induced Stat Phosph. (IC50)
From the text: IFNα-Induced STAT Phosphorylation in Human Whole Blood The amount of pSTAT5 expression was quantitated by median fluorescence intensity after gating on the CD3 positive population.
pIC50: −log10 of the molar value.
Quantity kind: pIC50

INPUT: For the compound [2H]C([2H])([2H])NC(=O)c1nnc(Nc2cc(F)ccn2)cc1Nc1nccc(-c2ncn(C)n2)c1OC [Example 19] , report pIC50.
OUTPUT: 7.52

[A] [2H]C([2H])([2H])NC(=O)c1nnc(Nc2cc(C)ccn2)cc1Nc1nccc(-c2noc(CN(C)S(C)(=O)=O)n2)c1OC [Example 61]
[B] [2H]C([2H])([2H])NC(=O)c1nnc(Nc2cc(C)ccn2)cc1Nc1nccc(-c2noc(CN3CCOCC3)n2)c1OC [Example 42]
[C] [2H]C([2H])([2H])NC(=O)c1nnc(Nc2cc(CC)ccn2)cc1Nc1nccc(-c2ncn(C)n2)c1OC [Example 17]
[D] [2H]C([2H])([2H])NC(=O)c1nnc(Nc2cc(C)c(F)cn2)cc1Nc1nccc(-c2ncn(C)n2)c1OC [Example 16]
INPUT: Order these by pIC50, descending, and give the full ranking. Lab note: record answer as labels in requested order.
OUTPUT: C, D, A, B
(C: 7.30, D: 6.92, A: 6.52, B: 6.24)

[P] [2H]C([2H])([2H])NC(=O)c1nnc(NC(=O)OC)cc1Nc1nccc(-c2noc(CN3CCCCS3(=O)=O)n2)c1OC [Example 64]
[Q] [2H]C([2H])([2H])NC(=O)c1nnc(NC(=O)CC(C)C)cc1Nc1nccc(-c2noc(CN(C)S(C)(=O)=O)n2)c1OC [Example 70]
INPUT: Which value of pIC50 is smaller, the one for P or the one for Q ? // output: label of the selected item
OUTPUT: Q

###

System: IFNα-Induced STAT Phosphorylation
Assay overview: IFNα-Induced STAT Phosphorylation in Human Whole Blood
Type: cell-based
Experimental setup: Homo sapiens, 1 h compound incubation, 1000 U/mL recombinant human IFNα A/D for 15 min, pSTAT5 in CD3 positive population, read-out: LE Human WB IFNα-Induced Stat Phosph. (IC50)
Text: IFNα-Induced STAT Phosphorylation in Human Whole Blood The amount of pSTAT5 expression was quantitated by median fluorescence intensity after gating on the CD3 positive population.
pIC50: −log10 of the molar value.
Quantity kind: pIC50

[I] [2H]C([2H])([2H])NC(=O)c1nnc(Nc2ccc(C(C)(C)O)cn2)cc1Nc1nccc(-c2noc(C)n2)c1OC
[II] [2H]C([2H])([2H])NC(=O)c1nnc(NC(=O)CC(C)C)cc1Nc1nccc(-c2noc(CN3CCOC3=O)n2)c1OC
[III] [2H]C([2H])([2H])NC(=O)c1nnc(NC(=O)OC)cc1Nc1nccc(-c2noc(CN(C)S(C)(=O)=O)n2)c1OC
INPUT: Order them by pIC50, ascending: the compounds above. Put the labels in the order asked and list them.
OUTPUT: II, III, I

###

Test system: IFNα-Induced STAT Phosphorylation
Assay overview: IFNα-Induced STAT Phosphorylation in Human Whole Blood
Type: cell-based
Experimental setup: 1 h compound incubation, 1000 U/mL recombinant human IFNα A/D for 15 min, pSTAT5 in CD3 positive population, read-out: LE Human WB IFNα-Induced Stat Phosph. (IC50)
pIC50: −log10 of the molar value.
Quantity kind: pIC50

[a] [2H]C([2H])([2H])NC(=O)c1nnc(Nc2ccccn2)cc1Nc1nccc(-c2ncn(C)n2)c1OC [Example 28]
[b] [2H]C([2H])([2H])NC(=O)c1nnc(Nc2ccccn2)cc1Nc1nccc(-c2ncn(C)n2)c1OC [Example 2]
INPUT: Between the entries labeled a and b , whose measured pIC50 is lower? Use the label to indicate which entry you chose.
OUTPUT: a

###

Test system: IFNα-Induced STAT Phosphorylation
Assay overview: IFNα-Induced STAT Phosphorylation in Human Whole Blood
Type: cell-based
Experimental setup: Homo sapiens, 1 h compound incubation, 1000 U/mL recombinant human IFNα A/D for 15 min, pSTAT5 in CD3 positive population, read-out: LE Human WB IFNα-Induced Stat Phosph. (IC50)
pIC50: −log10 of the molar value.
Quantity kind: pIC50

INPUT: Please list pIC50 recorded for the compound [2H]C([2H])([2H])NC(=O)c1cnc(Nc2cc(C)ccn2)cc1Nc1nccc(-c2nnn(C)n2)c1OC
OUTPUT: 6.55

[a] [2H]C([2H])([2H])NC(=O)c1nnc(Nc2cc(C)ccn2)cc1Nc1nccc(-c2noc(COC)n2)c1OC
[b] [2H]C([2H])([2H])NC(=O)c1nnc(NC(=O)C2CC2)cc1Nc1nccc(-c2noc(CN(C)S(C)(=O)=O)n2)c1OC
INPUT: In the pair a and b , the larger recorded pIC50 belongs to which? Pick one and reply with its label.
OUTPUT: b
(b: 8.00, a: 5.95)

[I] [2H]C([2H])([2H])NC(=O)c1cnc(NC(=O)C2CC2)cc1Nc1nccc(-c2ccccn2)c1OC
[II] [2H]C([2H])([2H])NC(=O)c1cnc(NC(=O)C2CC2)cc1Nc1nccc(-c2noc(COCC)n2)c1OC
INPUT: # min-compare on pIC50 between I and II Select an item and report its label.
OUTPUT: I
(I: 7.10, II: 7.52)
